# particulars: 293.15 K; 101.33 kPa; Liquid; Vibrating tube method

- smiles structure: "COCCOC"
  mass density / kg/m3: 866.71
- smiles structure: "CCO"
  mass density / kg/m3: 789.43
- smiles structure: "CCCCCO"
  mass density / kg/m3: 814.6
- smiles structure: "CCCCCCCCO"
  mass density / kg/m3: 825.13

----------
# particulars: 313.15 K; 101.33 kPa; Liquid; Vibrating tube method
Here, each record is paired with measured mass density data.

- molecule: "CCO [ethanol]"
  quantity unit: "kg/m3"
  mass density: 772.34
- molecule: "CCCCCCCCO [octan-1-ol]"
  quantity unit: "kg/m3"
  mass density: 811.15
- molecule: "COCCOC [1,2-dimethoxyethane]"
  quantity unit: "kg/m3"
  mass density: 844.69
- molecule: "CCCCCO [pentan-1-ol]"
  quantity unit: "kg/m3"
  mass density: 799.9

----------
# particulars: 313.15 K; 101.33 kPa; Liquid; Capillary tube (Ostwald / Ubbelohde) method
± gives the expanded uncertainty stated by the source.
quantity: viscosity

- smiles structure: "CCCCCCCCO"
  quantity: "viscosity"
  result: "4.628 ± 0.028 mPa·s"
- smiles structure: "CCO"
  quantity: "viscosity"
  result: "0.831 ± 0.005 mPa·s"
- smiles structure: "COCCOC"
  quantity: "viscosity"
  result: "0.353 ± 0.003 mPa·s"
- smiles structure: "CCCCCO"
  quantity: "viscosity"
  result: "2.319 ± 0.018 mPa·s"

----------
# particulars: 303.15 K; 101.33 kPa; Liquid; Capillary tube (Ostwald / Ubbelohde) method

- smiles structure: "CCCCCCCCO"
  viscosity [mPa·s]: 6.395
- smiles structure: "COCCOC"
  viscosity [mPa·s]: 0.392
- smiles structure: "CCO"
  viscosity [mPa·s]: 0.998
- smiles structure: "CCCCCO"
  viscosity [mPa·s]: 3.032

----------
# particulars: 283.15 K; 101.33 kPa; Liquid; Capillary tube (Ostwald / Ubbelohde) method

- smiles structure: "CCO"
  viscosity [mPa·s]: 1.459
- smiles structure: "COCCOC"
  viscosity [mPa·s]: 0.493
- smiles structure: "CCCCCCCCO"
  viscosity [mPa·s]: 13.52
- smiles structure: "CCCCCO"
  viscosity [mPa·s]: 5.463

----------
Here, each record is paired with measured viscosity data.
# particulars: 298.15 K; 101.33 kPa; Liquid; Capillary tube (Ostwald / Ubbelohde) method
± gives the expanded uncertainty stated by the source.

- compound: "COCCOC [1,2-dimethoxyethane]"
  viscosity: "0.414 ± 0.003 mPa·s"
- compound: "CCO [ethanol]"
  viscosity: "1.098 ± 0.007 mPa·s"
- compound: "CCCCCCCCO [octan-1-ol]"
  viscosity: "7.618 ± 0.042 mPa·s"
- compound: "CCCCCO [pentan-1-ol]"
  viscosity: "3.49 ± 0.026 mPa·s"

----------
# particulars: 298.15 K; 101.33 kPa; Liquid; Vibrating tube method
quantity: mass density (kg/m3)

- smiles structure: "CCCCCO"
  numeric value: 810.93
- smiles structure: "CCCCCCCCO"
  numeric value: 821.63
- smiles structure: "COCCOC"
  numeric value: 861.2
- smiles structure: "CCO"
  numeric value: 785.16
